TESTED_ON: Cytochrome P450 2D6 (Homo sapiens)
TEST: Cytochrome P450 Family 2 Subfamily D Member 6 (CYP2D6) small molecule antagonists: luciferase reporter qHTS assay (AID 1671196); further: nearly all actives have a fitted effect of over 50% in size
STATED_CONDITIONS: P450-Glo CYP2D6 enzyme assay, luciferin luminescence, 1 h; series mostly up to 115 µM
Records with an inconclusive call do not appear. Active and inactive are the calls of the source. The call rests on the fitted dose curve; in most records, active means well fitted inhibition curve with a large enough effect in the repeat runs; inconclusive means weak or mixed curves; inactive means no such curve, though single readings can be large or run the other way.
Hello, when you answer, please use one of the following outcomes: Y = active, N = inactive

Q: # fetch the recorded call for O=S1(=O)CC(Cl)(Cl)C(Cl)(Cl)C1 here
Ans: N

Q: # fetch the recorded call for Clc1ccc2n[nH]nc2c1 here
Ans: N

Q: # fetch the recorded call for CCN(C(=O)c1cc(C)cc(OC[C@H](C)Nc2ccncc2)c1)C(C)C here
Ans: Y

Q: # fetch the recorded call for CCCCc1oc2ccc(NS(C)(=O)=O)cc2c1C(=O)c1ccc(OCCCN(CCCC)CCCC)cc1 here
Ans: Y

Q: # fetch the recorded call for Cc1ccc(O)c2ncccc12 here
Ans: N

Q: # fetch the recorded call for CC(=O)SC[C@@H](Cc1ccccc1)C(=O)NCC(=O)OCc1ccccc1 here
Ans: Y

###

TEST: qHTS assay to identify small molecule antagonists of the estrogen related receptor signaling pathway with the pleiotropic PPARgamma coactivator (PGC) from Tox21 10K library (AID 1224841); further: actives are mostly falling curves and most rising ones were filed inactive; nearly all actives have a fitted effect of over 50% in size; further: potency means the concentration at half of the fitted maximal effect
STATED_CONDITIONS: PGC/ERR reporter cell line, ONE-Glo luciferase, 18 h; series mostly up to 92.4 µM
Results filed as inconclusive are left out. The source made the active and inactive calls. How the calls were made is not given here.
PARAMETER_MEASURED: Potency

Before answering, review these 5 worked examples.
INSERT INTO results (compound, result) VALUES
  ('Cc1[nH]cnc1C[C@H]1CCc2c(C)c3ccccc3n2C1=O', '23.7 µM (active)'),
  ('CC(C)=CCOc1ccc(/C=C/C(=O)c2ccc(OCC=C(C)C)cc2OCC(=O)O)cc1', '21.1 µM (active)'),
  ('CCC1=C[C@@H]2CN(C1)Cc1c([nH]c3ccccc13)[C@@](C(=O)OC)(c1cc3c(cc1OC)N(C)[C@H]1[C@@](O)(C(=O)OC)[C@H](OC(C)=O)[C@]4(CC)C=CCN5CC[C@]31[C@@H]54)C2', 'inactive'),
  ('O=c1[nH]sc2cc(Cl)ccc12', '0.298 µM (active)'),
  ('NNc1nc(-c2ccc([N+](=O)[O-])cc2)cs1', '48.6 µM (active)');

Q: Which Potency is reported for this compound? CC1(C)CCC(C)(C)c2cc(C(=O)Nc3ccc(C(=O)O)cc3)ccc21
Ans: inactive

Q: Which Potency is reported for this compound? CCOc1nc2cccc(C(=O)OC(C)OC(=O)OC3CCCCC3)c2n1Cc1ccc(-c2ccccc2-c2nn[nH]n2)cc1 (stereo not given)
Ans: 54.4 µM (active)

###

TESTED_ON: Cytochrome P450 2C19 (Homo sapiens) (UniProt P33261)
Sequence (P33261 whole entry, looked up): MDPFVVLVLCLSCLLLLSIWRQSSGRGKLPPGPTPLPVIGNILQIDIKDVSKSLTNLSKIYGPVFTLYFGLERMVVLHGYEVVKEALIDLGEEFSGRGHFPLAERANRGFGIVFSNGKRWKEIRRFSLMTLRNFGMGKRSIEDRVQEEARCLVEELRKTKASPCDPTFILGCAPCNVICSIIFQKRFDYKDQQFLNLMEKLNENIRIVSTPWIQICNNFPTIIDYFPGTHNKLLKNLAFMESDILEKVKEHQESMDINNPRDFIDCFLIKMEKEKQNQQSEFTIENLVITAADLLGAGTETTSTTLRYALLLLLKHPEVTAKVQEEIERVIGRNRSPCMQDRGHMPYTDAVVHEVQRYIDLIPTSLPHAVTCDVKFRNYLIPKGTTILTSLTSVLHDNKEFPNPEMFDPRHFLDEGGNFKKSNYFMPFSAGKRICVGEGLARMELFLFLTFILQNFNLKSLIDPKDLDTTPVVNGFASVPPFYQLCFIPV
TEST: Cytochrome P450 Family 2 Subfamily C Member 19 (CYP2C19) small molecule antagonists: luciferase reporter qHTS assay (AID 1671197); further: nearly all actives have a fitted effect of over 65% in size
STATED_CONDITIONS: P450-Glo CYP2C19 enzyme, luciferin luminescence, 1 h; series mostly up to 52.9 µM
Results filed as inconclusive are left out. The source made the active and inactive calls. Calls follow the shape of the dose curve; as a rule, active = well fitted inhibition curve with a large enough effect in the repeat runs; inconclusive = weak or mixed curves; inactive = no such curve, though single readings can be large or run the other way.
Hello, when you answer, please use one of the following outcomes: active, inactive

Q: # fetch the recorded call for OCCN1CCN(CC/C=C2/c3ccccc3Sc3ccc(C(F)(F)F)cc32)CC1 here
Ans: active

Q: # fetch the recorded call for C[C@@H]1C[C@H]2[C@@H]3CCC4=CC(=O)C=C[C@]4(C)[C@@]3(Cl)[C@@H](O)C[C@]2(C)[C@@]1(OC(=O)c1ccco1)C(=O)CCl here
Ans: active

Q: # fetch the recorded call for CCCCCCCC(=O)[O-].CCCCCCCC(=O)[O-].[Zn+2] here
Ans: inactive

Q: # fetch the recorded call for O=C(Oc1cccc2cccnc12)c1ccccc1 here
Ans: inactive

Q: # fetch the recorded call for CSc1ccc(/C=C2/C(C)=C(CC(=O)O)c3cc(F)ccc32)cc1 here
Ans: active

Q: # fetch the recorded call for NC(=NCCCCCCN=C(N)/N=C(\N)Nc1ccc(Cl)cc1)/N=C(\N)Nc1ccc(Cl)cc1 here
Ans: active

Q: # fetch the recorded call for CC(C)(C)CC(C)(C)c1ccc(OCCOCC[N+](C)(C)Cc2ccccc2)cc1 here
Ans: inactive

Q: # fetch the recorded call for O=C(Nc1cccc([N+](=O)[O-])c1)c1cc2ccccc2cc1O here
Ans: active

Q: # fetch the recorded call for [O-][n+]1ccccc1SSc1cccc[n+]1[O-] here
Ans: active

Q: # fetch the recorded call for NNC(=O)c1cccc(C(=O)NN)c1 here
Ans: inactive

Q: # fetch the recorded call for Cc1cc(O)c(C(C)(C)C)cc1Sc1cc(C(C)(C)C)c(O)cc1C here
Ans: active

Q: # fetch the recorded call for COc1cc(/C=C/C(=O)O[C@H]2CC[C@]34C[C@]35CC[C@]3(C)[C@@H]([C@H](C)CCC=C(C)C)CC[C@@]3(C)[C@@H]5CC[C@H]4C2(C)C)ccc1O here
Ans: inactive

Q: # fetch the recorded call for O=C(Nc1cccc(C(F)(F)F)c1)c1cc(Br)cc(Br)c1O here
Ans: active

Q: # fetch the recorded call for Oc1ccc2c(c1)-c1ccccc1C2 here
Ans: active

Q: # fetch the recorded call for NC(=O)N1C(=O)C(C(=O)c2cc(Cl)cs2)c2cc(F)c(Cl)cc21 (stereo unspecified) here
Ans: active

Q: # fetch the recorded call for [Cl][Bi]([Cl])([c]1ccccc1)([c]1ccccc1)[c]1ccccc1 here
Ans: active

Q: # fetch the recorded call for Cc1cccc(S(=O)(=O)O)c1C here
Ans: inactive

Q: # fetch the recorded call for CCCCCCCCCCCCCCCS(=O)(=O)Oc1ccccc1 here
Ans: active

Q: # fetch the recorded call for O=[N+]([O-])c1ccccc1Nc1ccccc1 here
Ans: active

Q: # fetch the recorded call for CCC1=C[C@@H]2CN(C1)Cc1c([nH]c3ccccc13)[C@@](C(=O)OC)(c1cc3c(cc1OC)N(C)[C@H]1[C@@](O)(C(=O)OC)[C@H](OC(C)=O)[C@]4(CC)C=CCN5CC[C@]31[C@@H]54)C2 here
Ans: inactive

Q: # fetch the recorded call for CCCN(CCC)C(=O)C(CCC(=O)OCCCN1CCN(CCOC(=O)Cc2c(C)n(C(=O)c3ccc(Cl)cc3)c3ccc(OC)cc23)CC1)NC(=O)c1ccccc1 (stereo unspecified) here
Ans: active

Q: # fetch the recorded call for CCc1oc2ccccc2c1C(=O)c1cc(Br)c(O)c(Br)c1 here
Ans: inactive

Q: # fetch the recorded call for Cc1c(C)c2c(c(C)c1OC(=O)CCC(=O)O)CC[C@@](C)(CCC[C@H](C)CCC[C@H](C)CCCC(C)C)O2 here
Ans: inactive

Q: # fetch the recorded call for C[C@]12CCC(=O)C=C1CC[C@@H]1[C@@H]2[C@@H](O)C[C@@]2(C)[C@H]1CC[C@]2(O)C(=O)COC(=O)CCC(=O)O here
Ans: inactive

Q: # fetch the recorded call for CC(C)(C)C(=O)OCOC(=O)[C@@H]1N2C(=O)[C@@H](NC(=O)[C@H](N)c3ccccc3)[C@H]2SC1(C)C here
Ans: inactive

Q: # fetch the recorded call for CCCCCCCC[P+](CCCCCCCC)(CCCCCCCC)CCCCCCCC here
Ans: active

Q: # fetch the recorded call for CCN(Cc1cccnc1)C(=O)c1cccc(Cl)c1[C@]1(C)C(=O)N(Cc2ccc(OC)cc2OC)c2ccc(Cl)cc21 here
Ans: active

Q: # fetch the recorded call for Nc1c(Cl)cc(Cl)cc1Cl here
Ans: inactive

Q: # fetch the recorded call for COC(=O)c1cc(Cl)ccc1OC here
Ans: inactive

Q: # fetch the recorded call for Clc1ccc2n[nH]nc2c1 here
Ans: inactive

Q: # fetch the recorded call for CNC(=O)c1ccccc1 here
Ans: inactive

Q: # fetch the recorded call for C[C@H]1[C@H]2CC[C@H]3[C@@H]4CC=C5C[C@@H](N(C)C)CC[C@]5(C)[C@H]4CC[C@]23CN1C here
Ans: inactive

Q: # fetch the recorded call for C/C=C1/C(=O)C[C@H]2[C@@H]3CCC4=CC(=O)CC[C@]4(C)[C@H]3CC[C@]12C here
Ans: active

Q: # fetch the recorded call for Clc1ccc(C(Cn2ccnc2)OCc2ccc(Sc3ccccc3)cc2)c(Cl)c1 (stereo unspecified) here
Ans: active

Q: # fetch the recorded call for CCCCCOc1ccccc1/C(=C\SC)n1ccnc1 here
Ans: active

Q: # fetch the recorded call for Fc1ccc(C(c2ccc(F)cc2)N2CCN(C/C=C/c3ccccc3)CC2)cc1 here
Ans: inactive

Q: # fetch the recorded call for Oc1ccc(C2(c3ccc(O)cc3)CC3CC2C2CCCC32)cc1 (stereo unspecified) here
Ans: active

Q: # fetch the recorded call for O=C1CCCc2c1cc1ccc3cccc4ccc2c1c34 here
Ans: active

Q: # fetch the recorded call for Nc1ccc(N)c2ccccc12 here
Ans: active

Q: # fetch the recorded call for Cc1cccc(N(C)C(=S)Oc2ccc3c(c2)C2CCC3C2)c1 (stereo unspecified) here
Ans: active

Q: # fetch the recorded call for C=CC(=O)OCC(CO)(COCC(COC(=O)C=C)(COC(=O)C=C)COC(=O)C=C)COC(=O)C=C here
Ans: active
